system: MOLT-4 leukemia; assay: NCI tumour cell line growth inhibition, 48 h
readoutLabel: GI50

INSERT INTO measurements (givensmiles, result) VALUES
  ('CC[C@@]12CC(C(=O)OC)=C3Nc4ccccc4[C@@]34CCN(C[C@H]3O[C@H]31)[C@@H]24', '27.9 µM'),
  ('COc1cc(C(=O)N[C@@H]2CCCN(C)C2)ccc1Nc1ncc2c(n1)N(C1CCCC1)CC(C)(C)C(=O)N2C', '0.0417 µM'),
  ('NC1=Nc2cc(OCCCCN3Cc4ccccc4C3)c(OCC3CC3)cc2C12CCCC2', '1.88 µM'),
  ('COc1ccc(-c2cc(-c3ccc(Cl)cc3)c(C#N)c(=O)n2CCCCCC(=O)Nc2ccccc2N)cc1', '5.16 µM');
